Tested on: Staphylococcus aureus
Test: Antibacterial activity against Staphylococcus aureus ATCC 29213 incubated for 24 hrs by microtiter plate method
Format: functional
Conditions: Staphylococcus aureus, ATCC 29213, read-out: MIC
Square brackets hold non-standard residues; d marks the D form. Peptide text beside a SMILES is read from it. Bip = N[C@@H](Cc1ccc(-c2ccccc2)cc1)C(=O)O; Dip = N[C@H](C(=O)O)C(c1ccccc1)c1ccccc1; 2Nal = N[C@@H](Cc1ccc2ccccc2c1)C(=O)O
Listing of recorded MIC by entry.

Data request, read-out MIC, for N=C(N)NCCC[C@@H]1NC(=O)[C@H](CCCNC(=N)N)NC(=O)[C@H](Cc2ccc(-c3ccccc3)cc2)NC(=O)[C@H](Cc2ccc(-c3ccccc3)cc2)NC(=O)[C@H](Cc2ccc(-c3ccccc3)cc2)NC(=O)[C@H](CCCNC(=N)N)NC1=O (cyclo([Bip][Bip][Bip]RRR))
50 µg/mL

MIC lookup needed for N=C(N)NCCC[C@H](NC(=O)[C@H](CCCNC(=N)N)NC(=O)[C@H](CCCNC(=N)N)NC(=O)[C@H](CCCNC(=N)N)NC(=O)[C@@H](N)CCCNC(=N)N)C(=O)N[C@@H](Cc1ccc2ccccc2c1)C(=O)N[C@@H](Cc1ccc2ccccc2c1)C(=O)N[C@@H](Cc1ccc2ccccc2c1)C(=O)O (H-RRRRR[2Nal][2Nal][2Nal]-OH) , thanks.
6.2 µg/mL

What MIC value was documented for this molecule, N=C(N)NCCC[C@H](NC(=O)[C@H](Cc1ccc2ccccc2c1)NC(=O)[C@H](Cc1ccc2ccccc2c1)NC(=O)[C@H](CCCNC(=N)N)NC(=O)[C@H](CCCNC(=N)N)NC(=O)[C@H](Cc1ccc2ccccc2c1)NC(=O)[C@@H](N)CCCNC(=N)N)C(=O)O (H-R[2Nal]RR[2Nal][2Nal]R-OH) ?
12.5 µg/mL

Recorded MIC of NCCCC[C@H](NC(=O)[C@H](CCCCN)NC(=O)[C@H](CCCCN)NC(=O)[C@@H](N)CCCCN)C(=O)N[C@@H](CCCCN)C(=O)N[C@H](C(=O)N[C@H](C(=O)N[C@H](C(=O)O)C(c1ccccc1)c1ccccc1)C(c1ccccc1)c1ccccc1)C(c1ccccc1)c1ccccc1 (H-KKKKK[Dip][Dip][Dip]-OH) , please.
50 µg/mL

---

Test system: Streptococcus pneumoniae
Experiment: Antibacterial activity against […] ATCC 49619 incubated for 24 hrs by microtiter plate method
Assay type: functional
Square brackets hold non-standard residues; d marks the D form. Peptide text beside a SMILES is read from it. Dip = N[C@H](C(=O)O)C(c1ccccc1)c1ccccc1
Reported endpoint: MIC (µg/mL)
State just the number; it will be interpreted in µg/mL.

[[record]]
compound = "N=C(N)NCCC[C@@H]1NC(=O)[C@H](CCCNC(=N)N)NC(=O)[C@H](CCCNC(=N)N)NC(=O)[C@H](C(c2ccccc2)c2ccccc2)NC(=O)[C@H](C(c2ccccc2)c2ccccc2)NC(=O)[C@H](C(c2ccccc2)c2ccccc2)NC(=O)[C@H](CCCNC(=N)N)NC1=O (cyclo(RRRR[Dip][Dip][Dip]))"
units = "µg/mL"
quantitative_readout = 25


# returns recorded MIC (system: Streptococcus pneumoniae) for CCCCCCCCCC(=O)N[C@@H](Cc1c[nH]c2ccccc12)C(=O)N[C@H](CC(N)=O)C(=O)N[C@@H](CC(=O)O)C(=O)N[C@@H]1C(=O)NCC(=O)N[C@@H](CCCN)C(=O)N[C@@H](CC(=O)O)C(=O)N[C@H](C)C(=O)N[C@@H](CC(=O)O)C(=O)NCC(=O)N[C@H](CO)C(=O)N[C@@H]([C@H](C)CC(=O)O)C(=O)N[C@@H](CC(=O)c2ccccc2N)C(=O)O[C@@H]1C
12.5

---

Assay: Proteolytic stability in human plasma at 100 uM incubated for 30 mins by Q-TOF LC/MS analysis relative to control
Format: ADME, cell-free
Conditions: read-out: Stability
Square brackets hold non-standard residues; d marks the D form. Peptide text beside a SMILES is read from it. Dip = N[C@H](C(=O)O)C(c1ccccc1)c1ccccc1; 2Nal = N[C@@H](Cc1ccc2ccccc2c1)C(=O)O
# remaining at 0.5 h, 100 µM per entry

Entry under review: N=C(N)NCCC[C@@H]1NC(=O)[C@H](CCCNC(=N)N)NC(=O)[C@H](CCCNC(=N)N)NC(=O)[C@H](C(c2ccccc2)c2ccccc2)NC(=O)[C@H](C(c2ccccc2)c2ccccc2)NC(=O)[C@H](C(c2ccccc2)c2ccccc2)NC(=O)[C@H](CCCNC(=N)N)NC1=O (cyclo(RRRR[Dip][Dip][Dip])) . Reported remaining at 0.5 h, 100 µM?
86%

State the recorded remaining at 0.5 h, 100 µM for this entry: N=C(N)NCCC[C@H](NC(=O)[C@H](CCCNC(=N)N)NC(=O)[C@@H](N)CCCNC(=N)N)C(=O)N[C@@H](CCCNC(=N)N)C(=O)N[C@H](C(=O)N[C@H](C(=O)N[C@H](C(=O)O)C(c1ccccc1)c1ccccc1)C(c1ccccc1)c1ccccc1)C(c1ccccc1)c1ccccc1 (H-RRRR[Dip][Dip][Dip]-OH)
69%

Recorded remaining at 0.5 h, 100 µM of N=C(N)NCCC[C@@H]1NC(=O)[C@H](CCCNC(=N)N)NC(=O)[C@H](CCCNC(=N)N)NC(=O)[C@H](Cc2ccc3ccccc3c2)NC(=O)[C@H](Cc2ccc3ccccc3c2)NC(=O)[C@H](Cc2ccc3ccccc3c2)NC(=O)[C@H](CCCNC(=N)N)NC1=O (cyclo(RRRR[2Nal][2Nal][2Nal])) , please.
82%

Recorded remaining at 0.5 h, 100 µM for N=C(N)NCCC[C@H](NC(=O)[C@H](CCCNC(=N)N)NC(=O)[C@H](CCCNC(=N)N)NC(=O)[C@@H](N)CCCNC(=N)N)C(=O)N[C@@H](Cc1ccc2ccccc2c1)C(=O)N[C@@H](Cc1ccc2ccccc2c1)C(=O)N[C@@H](Cc1ccc2ccccc2c1)C(=O)O (H-RRRR[2Nal][2Nal][2Nal]-OH) , please?
62%

---

Tested on: Streptococcus pneumoniae
Assay: Antibacterial activity against […] ATCC 49619 incubated for 24 hrs by microtiter plate method
Type: functional
Square brackets hold non-standard residues; d marks the D form. Peptide text beside a SMILES is read from it. Dip = N[C@H](C(=O)O)C(c1ccccc1)c1ccccc1; 2Nal = N[C@@H](Cc1ccc2ccccc2c1)C(=O)O
Reported endpoint: MIC (µg/mL)
Respond numerically; units are µg/mL and should not be typed.

[[record]]
molecule = "N=C(N)NCCC[C@@H]1NC(=O)[C@H](CCCNC(=N)N)NC(=O)[C@H](CCCNC(=N)N)NC(=O)[C@H](Cc2ccc3ccccc3c2)NC(=O)[C@H](Cc2ccc3ccccc3c2)NC(=O)[C@H](Cc2ccc3ccccc3c2)NC(=O)[C@H](CCCNC(=N)N)NC1=O (cyclo(RRRR[2Nal][2Nal][2Nal]))"
target = "Streptococcus pneumoniae"
units = "µg/mL"
quantitative_readout = 25

[[record]]
molecule = "N=C(N)NCCC[C@@H]1NC(=O)[C@H](CCCNC(=N)N)NC(=O)[C@H](C(c2ccccc2)c2ccccc2)NC(=O)[C@H](C(c2ccccc2)c2ccccc2)NC(=O)[C@H](C(c2ccccc2)c2ccccc2)NC(=O)[C@H](CCCNC(=N)N)NC1=O (cyclo([Dip][Dip][Dip]RRR))"
target = "Streptococcus pneumoniae"
units = "µg/mL"
quantitative_readout = 50


What is its MIC for Streptococcus pneumoniae? Entry: CN[C@H](CC(C)C)C(=O)N[C@H]1C(=O)N[C@@H](CC(N)=O)C(=O)N[C@H]2C(=O)N[C@H]3C(=O)N[C@H](C(=O)N[C@H](C(=O)O)c4cc(O)cc(O)c4-c4cc3ccc4O)[C@H](O)c3ccc(c(Cl)c3)Oc3cc2cc(c3O[C@@H]2O[C@H](CO)[C@@H](O)[C@H](O)[C@H]2O[C@H]2C[C@](C)(N)[C@H](O)[C@H](C)O2)Oc2ccc(cc2Cl)[C@H]1O [VANCOMYCIN]
3.1

---

Consider the following compounds and their measured MIC readings.
System: Staphylococcus aureus
Experiment: Antibacterial activity against Staphylococcus aureus ATCC 29213 incubated for 24 hrs by microtiter plate method
Format: functional
Conditions: Staphylococcus aureus, ATCC 29213, read-out: MIC
Square brackets hold non-standard residues; d marks the D form. Peptide text beside a SMILES is read from it. Bip = N[C@@H](Cc1ccc(-c2ccccc2)cc1)C(=O)O; Dip = N[C@H](C(=O)O)C(c1ccccc1)c1ccccc1; 2Nal = N[C@@H](Cc1ccc2ccccc2c1)C(=O)O
Numeric answer only, unit µg/mL assumed.

Here is how some compounds turned out for MIC.
[[record]]
compound = "N=C(N)NCCC[C@@H]1NC(=O)[C@H](CCCNC(=N)N)NC(=O)[C@H](Cc2ccc3ccccc3c2)NC(=O)[C@H](Cc2ccc3ccccc3c2)NC(=O)[C@H](CCCNC(=N)N)NC(=O)[C@H](CCCNC(=N)N)NC(=O)[C@H](Cc2ccc3ccccc3c2)NC1=O (stereo in doubt; 18C)"
quantitative_readout = 6.2

[[record]]
compound = "N=C(N)NCCC[C@H](NC(=O)[C@H](CCCNC(=N)N)NC(=O)[C@H](CCCNC(=N)N)NC(=O)[C@@H](N)CCCNC(=N)N)C(=O)N[C@@H](Cc1ccc2ccccc2c1)C(=O)N[C@@H](Cc1ccc2ccccc2c1)C(=O)N[C@@H](Cc1ccc2ccccc2c1)C(=O)N[C@@H](Cc1ccc2ccccc2c1)C(=O)O (H-RRRR[2Nal][2Nal][2Nal][2Nal]-OH)"
quantitative_readout = 12.5

[[record]]
compound = "N=C(N)NCCC[C@H](NC(=O)[C@H](CCCNC(=N)N)NC(=O)[C@@H](NC(=O)[C@@H](NC(=O)[C@H](CCCNC(=N)N)NC(=O)[C@@H](N)CCCNC(=N)N)C(c1ccccc1)c1ccccc1)C(c1ccccc1)c1ccccc1)C(=O)N[C@H](C(=O)O)C(c1ccccc1)c1ccccc1 (H-RR[Dip][Dip]RR[Dip]-OH)"
quantitative_readout = 12.5

[[record]]
compound = "CCCCCCCCCC(=O)N[C@@H](Cc1c[nH]c2ccccc12)C(=O)N[C@H](CC(N)=O)C(=O)N[C@@H](CC(=O)O)C(=O)N[C@@H]1C(=O)NCC(=O)N[C@@H](CCCN)C(=O)N[C@@H](CC(=O)O)C(=O)N[C@H](C)C(=O)N[C@@H](CC(=O)O)C(=O)NCC(=O)N[C@H](CO)C(=O)N[C@@H]([C@H](C)CC(=O)O)C(=O)N[C@@H](CC(=O)c2ccccc2N)C(=O)O[C@@H]1C"
quantitative_readout = 0.7

[[record]]
compound = "N=C(N)NCCC[C@H](NC(=O)[C@H](CCCNC(=N)N)NC(=O)[C@@H](N)CCCNC(=N)N)C(=O)N[C@@H](CCCNC(=N)N)C(=O)N[C@H](C(=O)N[C@H](C(=O)N[C@H](C(=O)O)C(c1ccccc1)c1ccccc1)C(c1ccccc1)c1ccccc1)C(c1ccccc1)c1ccccc1 (H-RRRR[Dip][Dip][Dip]-OH)"
quantitative_readout = 6.2

[[record]]
compound = "N=C(N)NCCC[C@H](NC(=O)[C@H](CCCNC(=N)N)NC(=O)[C@@H](N)CCCNC(=N)N)C(=O)N[C@@H](CCCNC(=N)N)C(=O)N[C@H](C(=O)N[C@H](C(=O)N[C@H](C(=O)N[C@H](C(=O)O)C(c1ccccc1)c1ccccc1)C(c1ccccc1)c1ccccc1)C(c1ccccc1)c1ccccc1)C(c1ccccc1)c1ccccc1 (H-RRRR[Dip][Dip][Dip][Dip]-OH)"
quantitative_readout = 6.2

[[record]]
compound = "N=C(N)NCCC[C@H](NC(=O)[C@H](CCCNC(=N)N)NC(=O)[C@H](CCCNC(=N)N)NC(=O)[C@@H](N)CCCNC(=N)N)C(=O)N[C@@H](Cc1ccc(-c2ccccc2)cc1)C(=O)N[C@@H](Cc1ccc(-c2ccccc2)cc1)C(=O)N[C@@H](Cc1ccc(-c2ccccc2)cc1)C(=O)O (H-RRRR[Bip][Bip][Bip]-OH)"
quantitative_readout = 6.2

[[record]]
compound = "N=C(N)NCCC[C@@H]1NC(=O)[C@H](CCCNC(=N)N)NC(=O)[C@H](CCCNC(=N)N)NC(=O)[C@H](C(c2ccccc2)c2ccccc2)NC(=O)[C@H](C(c2ccccc2)c2ccccc2)NC(=O)[C@H](C(c2ccccc2)c2ccccc2)NC(=O)[C@H](CCCNC(=N)N)NC(=O)[C@H](CCCNC(=N)N)NC1=O (cyclo([Dip][Dip][Dip]RRRRR))"
quantitative_readout = 6.2

[[record]]
compound = "N=C(N)NCCC[C@H](NC(=O)[C@H](CCCNC(=N)N)NC(=O)[C@H](CCCNC(=N)N)NC(=O)[C@@H](N)CCCNC(=N)N)C(=O)N[C@@H](Cc1ccc2ccccc2c1)C(=O)N[C@@H](Cc1ccc2ccccc2c1)C(=O)N[C@@H](Cc1ccc2ccccc2c1)C(=O)O (H-RRRR[2Nal][2Nal][2Nal]-OH)"
quantitative_readout = 6.2

[[record]]
compound = "N=C(N)NCCC[C@@H]1NC(=O)[C@H](CCCNC(=N)N)NC(=O)[C@H](CCCNC(=N)N)NC(=O)[C@H](Cc2ccc3ccccc3c2)NC(=O)[C@H](Cc2ccc3ccccc3c2)NC(=O)[C@H](Cc2ccc3ccccc3c2)NC(=O)[C@H](Cc2ccc3ccccc3c2)NC(=O)[C@H](CCCNC(=N)N)NC1=O (cyclo([2Nal][2Nal][2Nal][2Nal]RRRR))"
quantitative_readout = 3.1


# evaluate next
Look up MIC: N=C(N)NCCC[C@@H]1NC(=O)[C@H](CCCNC(=N)N)NC(=O)[C@H](CCCNC(=N)N)NC(=O)[C@H](C(c2ccccc2)c2ccccc2)NC(=O)[C@H](C(c2ccccc2)c2ccccc2)NC(=O)[C@H](C(c2ccccc2)c2ccccc2)NC(=O)[C@H](C(c2ccccc2)c2ccccc2)NC(=O)[C@H](CCCNC(=N)N)NC1=O (cyclo([Dip][Dip][Dip][Dip]RRRR))
3.1
